Tested on: embryonal chicken chondrocytes
test_details: Increase of DNA synthesis of embryonal chicken chondrocytes
Format: cell-based
assay_setup: relative to recombinant hPTH (=100); stimulation beyond the base level; chondrocytes
Description: They were also tested for their ability, according to DE-A-37 25 319.0 and DE-A-37 25 320.4, to increase the DNA synthesis of embryonal chicken chondrocytes.
experimental_endpoint: DNA synthesis (%) relative activity
Answers are plain numbers, in %.

// worked examples, DNA synthesis (%) relative activity included
| molecule | output_unit | DNA synthesis (%) relative activity |
| --- | --- | --- |
| K13P: hPTH variant Lys(13) -> Pro(13), lengthened N-terminally by one proline (protein, UniProt P01270 32-115, looked up, variant K13P, Parathyroid hormone N-terminal proline extension, hPTH variant Lys(13) -> Pro(13), lengthened N-terminally by one proline) Parathyroid hormone: SVSEIQLMHNLGPHLNSMERVEWLRKKLQDVHNFVALGAPLAPRDAGSQRPRKKEDNVLVESHEKSLGEADKADVNVLTKAKSQ | % | 88 |
| H32L: hPTH variant His(32) -> Leu(32), lengthened N-terminally by one proline (protein, UniProt P01270 32-115, looked up, variant H32L, Parathyroid hormone N-terminal proline extension, hPTH variant His(32) -> Leu(32), lengthened N-terminally by one proline) Parathyroid hormone: SVSEIQLMHNLGKHLNSMERVEWLRKKLQDVLNFVALGAPLAPRDAGSQRPRKKEDNVLVESHEKSLGEADKADVNVLTKAKSQ | % | 11 |

Field: next molecule
Recorded DNA synthesis (%) relative activity of L11K: hPTH variant Leu(11) -> Lys(11), lengthened N-terminally by one proline (protein, UniProt P01270 32-115, looked up, variant L11K, Parathyroid hormone N-terminal proline extension, hPTH variant Leu(11) -> Lys(11), lengthened N-terminally by one proline) Parathyroid hormone: SVSEIQLMHNKGKHLNSMERVEWLRKKLQDVHNFVALGAPLAPRDAGSQRPRKKEDNVLVESHEKSLGEADKADVNVLTKAKSQ , please.
21
